test system: Human immunodeficiency virus 1; experiment: Antiviral activity against HIV-1 IIIB harboring RT K103N mutant infected in human MT4 cells assessed as protection against virus-induced cytotoxicity incubated for 5 days by MTT assay; assay type: functional, organism-based; conditions: Human immunodeficiency virus 1, IIIB, MT4, 120 h
Consider the cut-off 20 nM. If the recorded EC50 is strictly smaller, the label is Condition met; if not, the label is Condition not met.

Cc1cc(C#N)cc(C)c1Oc1nc(Nc2ccc(C#N)cc2)ncc1-c1ccncc1    Condition met
Cc1cc(C#N)cc(C)c1Oc1nc(Nc2ccc(C#N)cc2)ncc1-c1ccc(-c2ccccc2)cc1    Condition not met
Cc1cc(C#N)cc(C)c1Oc1nc(Nc2ccc(C#N)cc2)ncc1-c1ccc(C(F)(F)F)cc1    Condition not met
Cc1cc(C#N)cc(C)c1Oc1nc(Nc2ccc(C#N)cc2)ncc1-c1ccco1    Condition met
Cc1cc(C#N)cc(C)c1Oc1nc(Nc2ccc(C#N)cc2)ncc1-c1ccccc1    Condition not met
Cc1cc(C#N)cc(C)c1Oc1nc(Nc2ccc(C#N)cc2)ncc1-c1cncnc1    Condition met
Cc1cc(C#N)cc(C)c1Oc1nc(Nc2ccc(C#N)cc2)ncc1-c1cccc2ccccc12    Condition not met
Cc1cc(C#N)cc(C)c1Oc1nc(Nc2ccc(C#N)cc2)ncc1-c1ccc(N)cc1    Condition met

Answer whether the compound `Cc1cc(C)cc(-c2cnc(Nc3ccc(C#N)cc3)nc2Oc2c(C)cc(C#N)cc2C)c1` has EC50 strictly less than 20 nM
Condition not met

Bench note: check whether `COc1ccc(-c2cnc(Nc3ccc(C#N)cc3)nc2Oc2c(C)cc(C#N)cc2C)cc1` shows EC50 below 20 nM
Condition met

# check: EC50 < 20 nM for `Cc1cc(C#N)cc(C)c1Oc1nc(Nc2ccc(C#N)cc2)ncc1-c1ccc(F)cc1`
Condition met

hey, is EC50 for `Cc1cc(C#N)cc(C)c1Oc1nc(Nc2ccc(C#N)cc2)ncc1-c1cccnc1` lower than 20 nM or not?
Condition met

Quick check: EC50 of `Cc1cc(C#N)cc(C)c1Oc1nc(Nc2ccc(C#N)cc2)ncc1-c1ccsc1` under 20 nM?
Condition met

I wonder whether `Cc1cc(C#N)cc(C)c1Oc1nc(Nc2ccc(C#N)cc2)ncc1-c1ccoc1` has EC50 below 20 nM. Can you tell?
Condition met

Criterion: EC50 strictly below 20 nM. Is it met by Cc1ccnc2c1NC(=O)c1cccnc1N2C1CC1 [NEVIRAPINE] ?
Condition not met

Does `Cc1cc(C#N)cc(C)c1Oc1nc(Nc2ccc(C#N)cc2)ncc1-c1cccs1` have EC50 strictly under 20 nM?
Condition met

EC50 strictly < 20 nM for this compound? `Cc1cc(C#N)cc(C)c1Oc1nc(Nc2ccc(C#N)cc2)ncc1-c1ccc2ccccc2c1`
Condition not met

---

Each record here notes measured EC50.
system: Human immunodeficiency virus 1; experiment: Antiviral activity against HIV-1 RES056 infected in human MT4 cells assessed as protection against virus-induced cytotoxicity incubated for 5 days by MTT assay; type: functional, organism-based; details: Human immunodeficiency virus 1, RES056, MT4, 120 h
Answer format: numeric, µM implied, no suffix.

Examples with their reported EC50 follow.
COc1ccc(-c2cnc(Nc3ccc(C#N)cc3)nc2Oc2c(C)cc(C#N)cc2C)cc1    3.77
Cc1cc(C#N)cc(C)c1Oc1nc(Nc2ccc(C#N)cc2)ncc1-c1ccc(-c2ccccc2)cc1    8.52
Cc1cc(C#N)cc(C)c1Oc1nc(Nc2ccc(C#N)cc2)ncc1-c1ccccc1    9.13

# EC50 lookup, item `Cc1cc(C#N)cc(C)c1Oc1nc(Nc2ccc(C#N)cc2)ncc1-c1ccsc1`
1.44

---

test system: Human immunodeficiency virus 1; assay: Antiviral activity against HIV-1 RES056 infected in human MT4 cells assessed as protection against virus-induced cytotoxicity incubated for 5 days by MTT assay; format: functional, organism-based; settings: Human immunodeficiency virus 1, RES056, MT4, 120 h
OUTCOME MEASURE: EC50

Would you please look over these solved cases?
Cc1cc(C#N)cc(C)c1Oc1nc(Nc2ccc(C#N)cc2)ncc1-c1cncnc1    316 nM
Cc1cc(C#N)cc(C)c1Oc1nc(Nc2ccc(C#N)cc2)ncc1-c1ccc(F)cc1    5000 nM
Cc1cc(C#N)cc(C)c1Oc1nc(Nc2ccc(C#N)cc2)ncc1-c1cccnc1    300 nM
Cc1ccc(-c2cnc(Nc3ccc(C#N)cc3)nc2Oc2c(C)cc(C#N)cc2C)cc1    > 10600 nM
Cc1cc(C#N)cc(C)c1Oc1nc(Nc2ccc(C#N)cc2)ncc1-c1ccc(C(F)(F)F)cc1    5460 nM

Report EC50 for O=C1Nc2ccc(Cl)cc2[C@@](C#CC2CC2)(C(F)(F)F)O1 [EFAVIRENZ] tested on Human immunodeficiency virus 1.
273 nM

Entry `Cc1cc(C#N)cc(C)c1Oc1nc(Nc2ccc(C#N)cc2)ncc1-c1cccc2ccccc12` , system Human immunodeficiency virus 1: what EC50 was measured?
218000 nM

# value lookup — system Human immunodeficiency virus 1, readout EC50, item `Cc1cc(C#N)cc(C)c1Oc1nc(Nc2ccc(C#N)cc2)ncc1-c1cccs1`
1150 nM

EC50 of Cc1cn([C@H]2C[C@H](N=[N+]=[N-])[C@@H](CO)O2)c(=O)[nH]c1=O [ZIDOVUDINE] on Human immunodeficiency virus 1?
20.1 nM

State its EC50 on Human immunodeficiency virus 1: `Cc1cc(C#N)cc(C)c1Oc1nc(Nc2ccc(C#N)cc2)ncc1-c1ccc2ccccc2c1`
> 8460 nM

---

// reported pEC50 per item
system: Human immunodeficiency virus 1; assay: Antiviral activity against HIV-1 IIIB harboring RT F227L/V106A mutant infected in human MT4 cells assessed as protection against virus-induced cytotoxicity incubated for 5 days by MTT assay; format: functional, organism-based; conditions: Human immunodeficiency virus 1, IIIB, MT4, 120 h
pEC50 here is simply -log10 of the concentration when that concentration is written in mol/L.

Which pEC50 value belongs to `Cc1cc(C#N)cc(C)c1Oc1nc(Nc2ccc(C#N)cc2)ncc1-c1ccccc1` ?
6.05

Item `Cc1cc(C#N)cc(C)c1Oc1nc(Nc2ccc(C#N)cc2)ncc1-c1ccsc1` has what recorded pEC50?
7.19

Quick one: pEC50 of `Cc1cc(C#N)cc(C)c1Oc1nc(Nc2ccc(C#N)cc2)ncc1-c1ccc(Cl)cc1` ?
6.04

# get_value(readout='pEC50', item= `Cc1cc(C#N)cc(C)c1Oc1nc(Nc2ccc(C#N)cc2)ncc1-c1cccs1` )
6.57

Given the entry `Cc1cc(C#N)cc(C)c1Oc1nc(Nc2ccc(C#N)cc2)ncc1-c1ccc2ccccc2c1` , report its measured pEC50.
5.92

Fill blank: measured pEC50 of the compound `Cc1ccc(-c2cnc(Nc3ccc(C#N)cc3)nc2Oc2c(C)cc(C#N)cc2C)cc1` is ____.
6.15

Bench note: what pEC50 did `Cc1cc(C#N)cc(C)c1Oc1nc(Nc2ccc(C#N)cc2)ncc1-c1ccoc1` show?
7.49

---

Quick list: CC50 at 120 h per entry.
assay: Cytotoxicity against human MT4 cells assessed as reduction in cell viability after 5 days by MTT assay; assay type: cell-based; settings: time 5 day
Just the number please, in µM, no unit attached.

Known results for compounds:
Cc1cc(C#N)cc(C)c1Oc1nc(Nc2ccc(C#N)cc2)ncc1-c1ccncc1    27.9
Cc1cc(C#N)cc(C)c1Oc1nc(Nc2ccc(C#N)cc2)ncc1-c1ccsc1    3.92
Cc1cc(C#N)cc(C)c1Oc1nc(Nc2ccc(C#N)cc2)ncc1-c1cccs1    6.43
Cc1cc(C#N)cc(C)c1Oc1nc(Nc2ccc(C#N)cc2)ncc1-c1ccc(C(F)(F)F)cc1    35

# CC50 at 120 h lookup, item `Cc1cc(C#N)cc(C)c1Oc1nc(Nc2ccc(C#N)cc2)ncc1-c1cccnc1`
13.5

Given the entry `Cc1cc(C#N)cc(C)c1Oc1nc(Nc2ccc(C#N)cc2)ncc1-c1ccc(N)cc1` , report its measured CC50 at 120 h.
0.31

---

system: Human immunodeficiency virus 1; assay: Antiviral activity against HIV-1 IIIB harboring RT L100I mutant infected in human MT4 cells assessed as protection against virus-induced cytotoxicity incubated for 5 days by MTT assay; assay type: functional, organism-based; settings: Human immunodeficiency virus 1, IIIB, MT4, 120 h
pEC50: −log10 of the molar value.
Classification field: enter YES for pEC50 values not below 7, NO for values below it.

O=C1Nc2ccc(Cl)cc2[C@@](C#CC2CC2)(C(F)(F)F)O1    YES
Cc1cc(C#N)cc(C)c1Oc1nc(Nc2ccc(C#N)cc2)ncc1-c1cccnc1    YES
Cc1cc(C#N)cc(C)c1Oc1nc(Nc2ccc(C#N)cc2)ncc1-c1ccco1    YES
Cc1cc(C#N)cc(C)c1Oc1nc(Nc2ccc(C#N)cc2)ncc1-c1ccccc1    NO

Is pEC50 at least 7? Consider `Cc1cc(C#N)cc(C)c1Oc1nc(Nc2ccc(C#N)cc2)ncc1-c1ccc(N)cc1`
YES

API: above_or_equal(metric=pEC50, cutoff=7) for item `Cc1cc(C#N)cc(C)c1Oc1nc(Nc2ccc(C#N)cc2)ncc1-c1cccc2ccccc12`
NO

Is it the case that `Cc1cc(C#N)cc(C)c1Oc1nc(Nc2ccc(C#N)cc2)ncc1-c1ccc2ccccc2c1` has pEC50 reaching or exceeding 7?
NO

Identify whether the reported pEC50 of the following compound is 7 or greater: `Cc1cc(C#N)cc(C)c1Oc1nc(Nc2ccc(C#N)cc2)ncc1-c1ccc(-c2ccccc2)cc1`
NO

Determine whether measured pEC50 meets or exceeds 7 for `Cc1cc(C#N)cc(C)c1Oc1nc(Nc2ccc(C#N)cc2)ncc1-c1ccsc1`
YES

For this compound, is measured pEC50 7 or higher? `Cc1cc(C#N)cc(C)c1Oc1nc(Nc2ccc(C#N)cc2)ncc1-c1ccc(C(F)(F)F)cc1`
NO

Answer whether pEC50 of `Cc1cc(C#N)cc(C)c1Oc1nc(Nc2ccc(C#N)cc2)ncc1-c1ccc(Cl)cc1` is greater than or equal to 7.
NO

Could you verify whether the entry `Cc1cc(C#N)cc(C)c1Oc1nc(Nc2ccc(C#N)cc2)ncc1-c1cccs1` shows pEC50 of no less than 7?
YES

Check this compound for pEC50 at or above 7: `Cc1cc(C)cc(-c2cnc(Nc3ccc(C#N)cc3)nc2Oc2c(C)cc(C#N)cc2C)c1`
NO
